What Kd was measured for each of the following?
Molecular target: UDP-3-O-acyl-N-acetylglucosamine deacetylase (Aquifex aeolicus (strain VF5))
Sequence (O67648 whole entry): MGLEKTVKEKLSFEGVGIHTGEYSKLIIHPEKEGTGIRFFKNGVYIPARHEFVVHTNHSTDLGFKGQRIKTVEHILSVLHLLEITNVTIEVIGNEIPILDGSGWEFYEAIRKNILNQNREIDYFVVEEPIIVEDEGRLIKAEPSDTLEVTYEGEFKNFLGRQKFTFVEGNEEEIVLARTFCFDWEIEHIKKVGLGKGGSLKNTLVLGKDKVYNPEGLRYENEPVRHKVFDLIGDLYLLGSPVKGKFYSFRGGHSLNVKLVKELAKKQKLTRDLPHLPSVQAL
Assay: Thermofluor
Conditions: pH 7; 25 °C

See these solved cases before continuing.
{"columns": ["Compound", "Property", "Result"],
 "data": [
  ["CC1(CNC(=O)c2ccc(C#CC#Cc3ccccc3)cc2)NC(=O)NC1=O (stereo unspecified)", "Kd", "63.9 µM"],
  ["CCCc1ccc(-c2ccc(C3=N[C@@H](C(=O)NO)CO3)cc2)cc1", "Kd", "15.6 µM"],
  ["C[C@@H](O)[C@H](NC(=O)c1ccc(C#CC#Cc2ccccc2)cc1)C(=O)NO", "Kd", "0.008 µM"]
]}

Batch: Kd for all items listed.
1. NC[C@H](NC(=O)c1ccc(C#CC#Cc2ccccc2)cc1)C(=O)NO
2. O=C(NO)[C@H]1COC(c2ccc(F)c(C(F)(F)F)c2)=N1
3. O=C(NO)c1csc(-c2ccc(OC(F)(F)F)c(Cl)c2)n1

1: 0.059 µM; 2: 1.03 µM; 3: 21.5 µM

Field: Kd. Fill in for each record below.
1. NC[C@H](NC(=O)c1ccc(-c2ccccc2)cc1)C(=O)NO
2. C[C@@H](O)[C@H](NC(=O)c1ccc(C#CC#Cc2ccccc2)cc1)C(=O)NCC1(C)NC(=O)NC1=O (stereo partly specified)
3. C[C@@H](O)[C@H](NC(=O)c1ccc(C#Cc2ccccc2)cc1)C(=O)NCC1(C)NC(=O)NC1=O (stereo partly specified)
4. CC1(CNC(=O)[C@H](CN)NC(=O)c2ccc(-c3ccccc3)cc2)NC(=O)NC1=O (stereo partly specified)
5. O=C(NO)[C@H]1COC(c2ccc(OCc3cccc(F)c3)c(OC(F)(F)F)c2)=N1
6. NC[C@H](NC(=O)c1ccc(-c2ccc(Br)cc2)cc1)C(=O)NO

1. 0.393 µM
2. > 100 µM
3. > 100 µM
4. > 100 µM
5. > 100 µM
6. 0.19 µM

Batch of 2 compounds: report Kd for each.
1. CC1(CNC(=O)c2ccc(-c3ccc(Br)cc3)cc2)NC(=O)NC1=O (stereo unspecified)
2. C[C@@H](O)[C@H](NC(=O)c1ccc(-c2ccc(Br)cc2)cc1)C(=O)NCC1(C)NC(=O)NC1=O (stereo partly specified)

1: > 100 µM; 2: > 100 µM

Look at each compound and report its Kd.
1. CC1(CNC(=O)[C@H](CN)NC(=O)c2ccc(-c3ccc(Br)cc3)cc2)NC(=O)NC1=O (stereo partly specified)
2. CN(C)c1ccc(C2=N[C@@H](C(=O)NO)CO2)cc1

["> 100 µM", "> 100 µM"]

Give measured Kd for every item shown.
1. O=C(NO)c1csc(-c2ccc(F)c(C(F)(F)F)c2)n1
2. CC1(CNC(=O)[C@H](CN)NC(=O)c2ccc(C#Cc3ccccc3)cc2)NC(=O)NC1=O (stereo partly specified)

["2.91 µM", "> 100 µM"]

Hi, could you look up Kd for each item in my list?
1. C[C@@H](O)[C@H](NC(=O)c1ccc(-c2ccc(Br)cc2)cc1)C(=O)NO
2. CC1(CNC(=O)c2ccc(-c3ccccc3)cc2)NC(=O)NC1=O (stereo unspecified)
3. C[C@@H](O)[C@H](NC(=O)c1ccc(-c2ccccc2)cc1)C(=O)NCC1(C)NC(=O)NC1=O (stereo partly specified)
4. O=C(NO)[C@H]1COC(c2ccc([N+](=O)[O-])cc2)=N1

1. 0.033 µM
2. > 100 µM
3. > 100 µM
4. 7.25 µM

Parameter requested: Kd. Apply to each item below.
1. C[C@@H](O)[C@H](NC(=O)c1ccc(-c2ccccc2)cc1)C(=O)NO
2. O=C(NO)C1=C[SiH2]C(c2ccc(F)cc2)=N1 (stereo unspecified)
3. CN(C)c1ccc(-c2nc(C(=O)NO)cs2)cc1

0.075 µM
28.5 µM
28.2 µM

For each of the items listed, what is its Kd?
1. CC1(CNC(=O)[C@H](CN)NC(=O)c2ccc(C#CC#Cc3ccccc3)cc2)NC(=O)NC1=O (stereo partly specified)
2. CC1(CNC(=O)c2ccc(C#Cc3ccccc3)cc2)NC(=O)NC1=O (stereo unspecified)
3. O=C(NO)[C@H]1COC(c2ccc(F)cc2)=N1
4. O=C(NO)[C@H]1COC(c2cc3cc(F)ccc3[nH]2)=N1
5. O=C(NO)[C@H]1COC(c2ccc(OC(F)(F)F)c(Cl)c2)=N1
6. C[C@@H](O)[C@H](NC(=O)c1ccc(C#Cc2ccccc2)cc1)C(=O)NO

> 100 µM
93.4 µM
11.1 µM
2.5 µM
3.8 µM
0.02 µM
